# ASSAY_TARGET: Beta-secretase 1 (Homo sapiens, UniProt P56817)
# Sequence (P56817 whole entry): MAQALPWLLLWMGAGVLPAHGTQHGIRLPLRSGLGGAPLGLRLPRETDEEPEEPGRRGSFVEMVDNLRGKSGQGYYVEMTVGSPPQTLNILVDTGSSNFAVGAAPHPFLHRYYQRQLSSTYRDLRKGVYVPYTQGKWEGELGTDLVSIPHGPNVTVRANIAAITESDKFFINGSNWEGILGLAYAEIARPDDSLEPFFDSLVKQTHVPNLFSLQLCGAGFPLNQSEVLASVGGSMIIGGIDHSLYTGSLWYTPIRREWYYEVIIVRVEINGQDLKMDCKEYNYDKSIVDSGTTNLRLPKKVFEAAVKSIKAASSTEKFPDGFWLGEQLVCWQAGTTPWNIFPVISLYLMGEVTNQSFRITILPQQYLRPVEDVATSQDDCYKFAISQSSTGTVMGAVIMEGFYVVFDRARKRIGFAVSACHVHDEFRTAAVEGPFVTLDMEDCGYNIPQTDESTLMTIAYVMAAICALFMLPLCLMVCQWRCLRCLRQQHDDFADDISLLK
# ASSAY_SUMMARY: Inhibition of human BACE1 at 2 uM by FRET assay
QUANTITY: inhibition (%)

>>> reported_measurement("CC(C)C[C@H](NC(=O)[C@@H](NC(=O)[C@@H](N)CNC(=O)c1cc(O)ccc1O)C(C)C)C(=O)N[C@@H](Cc1ccccc1)[C@@H](O)C(=O)Nc1cccc(-c2n[nH]c(=S)n2C)c1")
94
>>> reported_measurement("CC(C)C[C@H](NC(=O)[C@@H](NC(=O)[C@@H](N)CNC(=O)c1cc(O)ccc1O)C(C)C)C(=O)N[C@@H](Cc1ccccc1)[C@@H](O)C(=O)Nc1cccc(-c2nsc(=O)[nH]2)c1")
99
